biological target: Human TASK-1 channels (Homo sapiens (Human)); test: Activity on the TASK-1 channel in Xenopus oocytes (two-microelectrode voltage clamp); details: human TASK-1 expressed in Xenopus oocytes, currents during pulses to 40 mV, room temperature
Sequence (O14649 whole entry): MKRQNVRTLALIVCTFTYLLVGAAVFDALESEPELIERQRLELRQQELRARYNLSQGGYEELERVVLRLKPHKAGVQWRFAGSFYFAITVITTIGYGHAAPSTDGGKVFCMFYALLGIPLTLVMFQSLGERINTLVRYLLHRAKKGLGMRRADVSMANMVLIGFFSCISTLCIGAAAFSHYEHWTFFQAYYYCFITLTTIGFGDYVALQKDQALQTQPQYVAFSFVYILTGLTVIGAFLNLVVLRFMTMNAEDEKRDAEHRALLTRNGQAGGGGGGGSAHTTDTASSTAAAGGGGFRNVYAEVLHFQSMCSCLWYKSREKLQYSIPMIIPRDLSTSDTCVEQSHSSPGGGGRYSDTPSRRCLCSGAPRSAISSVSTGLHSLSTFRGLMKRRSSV

# compound, IC50, nM
rows = [
    ("CC(=O)N1CCc2c(c(-c3cc(C#N)ccn3)nn2Cc2ccc(F)cc2F)C1 [Example 13a]", 422),
    ("CC(=O)N1CCc2c(c(-c3ccc(F)cc3)nn2C(c2ccc(F)cc2)C2CC2)C1 (centres unmarked) [Example 6ao]", 258),
    ("CCC(=O)N1CCc2c(c(-c3cccc(C#N)c3)nn2Cc2ccc(F)cc2F)C1 [Example 8p]", 530),
    ("CC(=O)N1CCc2c(c(-c3cccc(C#N)n3)nn2Cc2ccc(F)cc2F)C1 [Example 13b]", 462),
    ("O=C(Cc1ccccc1)N1CCc2c(c(-c3ccc(F)cc3)nn2Cc2ccccc2)C1 [Example 8r]", 1140),
]
